molecular target: purified catalytic domain of recombinant human TACE (rhTACEc) (Homo sapiens, UniProt P78536, N452Q/S266A); construct: rhTACEc, Residue 215 to 477 with two mutation (S266A and N452Q) and a 6xHis tail; 6xHis (C); made in house; host or cells: baculovirus/Hi5 insect cells; test: TACE kinetic assay, cleavage of internally quenched fluorescent peptide substrate SPDL-3; format: biochemical; details: TACE inhibition, Table 1; read-out: Ki Rating
Sequence (P78536 215-477 S266A/N452Q): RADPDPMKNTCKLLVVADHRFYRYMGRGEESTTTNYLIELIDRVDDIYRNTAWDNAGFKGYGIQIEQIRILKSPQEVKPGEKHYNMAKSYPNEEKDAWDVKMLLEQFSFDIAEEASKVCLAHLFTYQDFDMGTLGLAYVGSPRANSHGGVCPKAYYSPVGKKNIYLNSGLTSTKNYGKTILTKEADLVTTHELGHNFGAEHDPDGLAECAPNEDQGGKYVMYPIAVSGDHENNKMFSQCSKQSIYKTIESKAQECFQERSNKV
pKi: −log10 of the molar value.
Property Label: pKi

Would you please look over these solved cases?
[[record]]
compound = "COc1ccc2c(c1)C(=O)N(C[C@@]1(c3cc4ncccc4n3C(=O)OC(C)(C)C)NC(=O)NC1=O)C2 [Compound 46]"
reported_measurement = "> 8.00"

[[record]]
compound = "COc1ccc2c(c1)C(=O)N(CC1(CC(=O)NC(C)C)NC(=O)NC1=O)C2 (stereo not shown) [Compound 7]"
reported_measurement = "7.00 to 8.00"

[[record]]
compound = "COc1ccc2c(c1)C(=O)N(C[C@@]1(c3ccc(Oc4cccc(C(=O)N(C)C)c4)cc3)NC(=O)NC1=O)C2 [Compound 88]"
reported_measurement = "> 8.00"

[[record]]
compound = "COc1ccc2c(c1)C(=O)N(C[C@@]1(/C(Cc3c[nH]c(=O)c(C)c3)=N/O)NC(=O)NC1=O)C2 [Compound 48]"
reported_measurement = "7.00 to 8.00"

[[record]]
compound = "COc1ccc2c(c1)C(=O)N(C[C@@]1(c3ccc(Oc4cccc(C(=O)N5CCOCC5)c4)cc3)NC(=O)NC1=O)C2 [Compound 87]"
reported_measurement = "> 8.00"

[[record]]
compound = "COc1ccc2c(c1)C(=O)N(CC1(c3ccc(S(C)(=O)=O)cc3)NC(=O)NC1=O)C2 (stereo not shown) [Compound 33]"
reported_measurement = "> 8.00"


The recorded pKi for entry CNC(=O)c1ccc(Oc2ccc([C@]3(CN4Cc5ccc(OC)cc5C4=O)NC(=O)NC3=O)cc2)cc1 [Compound 84] equals > 8.00
